# Tested on: PC3 (human prostate cancer) cells
# Type: cell-based
# MEASUREMENT_CONTEXT: 72 h
# Protocol: The MTT and CV assays were employed for initial cytotoxicity screening and determination of half-maximal inhibitory concentrations (IC50), as described previously. Cells were seeded in 96-well plates and incubated for 24 h prior to treatment. […] Following treatment, absorbance was measured using a microplate reader (SpectraMax, Molecular Devices, San Jose, CA, USA) at 540 nm, with a reference wavelength of 670 nm. Cell viability was calculated as a percentage of untreated control wells.
pIC50: −log10 of the molar value.
PROPERTY_MEASURED: pIC50

[[record]]
compound = "CCCCCCCCCCCCCCCC(=O)N(CCCCCCNC(=O)OC(C)(C)C)CC(=O)NCC(=O)N(CCCCCCNC(=O)OC(C)(C)C)CC(=O)NCC(=O)OC [Compound 3]"
property_measured = "pIC50"
recorded_result = 5.21

[[record]]
compound = "CCCCCCCCCCCCCC(=O)N(CCNC(=O)OC(C)(C)C)CC(=O)NCC(=O)N(CCNC(=O)OC(C)(C)C)CC(=O)NCC(=O)OC [Compound 17]"
property_measured = "pIC50"
recorded_result = 5.39

